Biological target: T1, FMC63 IgG
T1 construct: biotinylated in the flow cytometry assays; also called FMC63 IgG antibody; biotinylated FMC63 IgG
T1 sequence (VH, as listed by the source, chain 1 of 2): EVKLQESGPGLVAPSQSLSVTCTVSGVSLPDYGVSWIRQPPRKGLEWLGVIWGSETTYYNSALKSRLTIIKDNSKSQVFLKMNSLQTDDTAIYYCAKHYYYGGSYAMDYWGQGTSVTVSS
T1 sequence (VL, as listed by the source, chain 2 of 2): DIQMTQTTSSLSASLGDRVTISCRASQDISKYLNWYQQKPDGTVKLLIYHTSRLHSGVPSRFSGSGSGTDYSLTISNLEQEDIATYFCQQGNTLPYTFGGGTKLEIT
Test: flow cytometry (MFI), yeast clone titrated with 0.01-1000 nM biotinylated FMC63 IgG
pKd: −log10 of the molar value.
VALUE_KIND: pKd

The recorded pKd for RICPWSCRAP [FMC63 Mimotope (D12), yeast-displayed] is < 6.00

The reported measurements were obtained from patent US20210340524A1.
